- Tested on: A498
- protocolDescription: NCI tumour cell line growth inhibition, 48 h
Activity calls are given as the source filed them. Rule as the data show it: active = GI50 up to about 1.1 µM and inactive = higher.
I'd be grateful if you could share measured GI50 for these entries.

input: Give GI50 for COc1cc(/C=C2\C(=O)N(c3ccccc3)C(c3ccccc3)S2(=O)=O)cc(OC)c1OC (stereo not drawn)
output: > 100 µM (inactive)

input: Give GI50 for Cc1cc2c(C(C)C)c(O)c(O)c(/C=N\CCO)c2c(O)c1-c1c(C)cc2c(C(C)C)c(O)c(O)c(/C=N/CCO)c2c1O
output: 3.36 µM (inactive)

input: Give GI50 for Cc1nc(C)c(N2CCN([N+](=O)[O-])CC2)c(O)n1
output: > 100 µM (inactive)

input: Give GI50 for O=c1c(Cc2ccc(Cl)cc2)nnc2sc(-c3ccc(-c4ccc(F)c(Cl)c4)o3)nn12
output: 42.2 µM (inactive)

input: Give GI50 for c1cc2c(cc1C1=NCCN1)c1cc(C3=NCCN3)ccc1n2CC1CCCCC1
output: > 100 µM (inactive)

input: Give GI50 for C[C@@H]1OC(=O)N2CCCC(=C3SCCCS3)C12 (stereo partly drawn)
output: > 100 µM (inactive)

input: Give GI50 for COc1c(OC2OC(CO)C(O)C(O)C2O)cc2c(c1OC)-c1ccc(OC)c(=O)cc1[C@@H](NC(C)=O)CC2 (stereo partly drawn)
output: > 100 µM (inactive)

input: Give GI50 for O=C(O)c1cc(Cl)cc(Cc2cc(Cl)cc(C(=O)O)c2O)c1O
output: > 100 µM (inactive)

====

- System: IGROV-1
- protocolDescription: NCI tumour cell line growth inhibition, 48 h
Active and inactive are the calls of the source. No stated cut-off is given here; in the data, active = GI50 up to about 1.1 µM and inactive = higher.
recordedEndpoint: GI50

input: Give GI50 for CC(=O)N1C(Nc2nccs2)CCN1c1ccccc1 (stereo unspecified)
output: > 10 µM (inactive)

input: Give GI50 for CCc1nc2ccccc2c(=O)n1/N=C(\N=N\c1ccc(Cl)cc1)c1ccccc1Cl
output: > 100 µM (inactive)

input: Give GI50 for O=C(O)c1cc(Cl)cc(Cc2cc(Cl)cc(C(=O)O)c2O)c1O
output: > 100 µM (inactive)

input: Give GI50 for N#CCC1(c2ccc(Cl)cc2)NC(=O)c2ccccc21 (stereo unspecified)
output: > 100 µM (inactive)

input: Give GI50 for N#Cc1ccccc1NC(=O)C(=O)C(C(=O)c1ccncc1)C1OC(=O)c2ccccc21 (stereo unspecified)
output: > 100 µM (inactive)

input: Give GI50 for Cc1cc2c(c(C(=O)NCCC(=O)N[C@@H](C)C(=O)OCc3ccccc3)c1)Oc1c(cc(C)cc1C(=O)NCCC(=O)N[C@@H](C)C(=O)OCc1ccccc1)S2
output: > 100 µM (inactive)

====

- Tested on: RPMI-8226
- protocolDescription: NCI tumour cell line growth inhibition, 48 h
Calls of active or inactive are those of the source. No stated cut-off is given here; in the data, active = GI50 up to about 1.1 µM and inactive = higher.
recordedEndpoint: GI50

input: Give GI50 for O=[N+]([O-])c1cccc(S(=O)(=O)N/N=C/c2cc(I)cc([N+](=O)[O-])c2O)c1
output: 37 µM (inactive)

input: Give GI50 for COC(=O)N1CC2(CO)C3CC=C(C(=O)Nc4ccccc4Br)C2C1C3Br (centres undefined)
output: > 50 µM (inactive)

input: Give GI50 for C[C@@H]1OC(=O)N2CCCC(=C3SCCCS3)C12 (some centres undefined)
output: 36.9 µM (inactive)

input: Give GI50 for CC(=O)Oc1ccc(/C=C/C(=O)O[C@@H](C(=O)O)[C@@H](OC(=O)/C=C/c2ccc(OC(C)=O)c(OC(C)=O)c2)C(=O)O)cc1OC(C)=O
output: > 100 µM (inactive)

input: Give GI50 for O=[N+]([O-])c1cccc(C2ON2C2CCCCC2)c1 (centres undefined)
output: 2.94 µM (inactive)

input: Give GI50 for CC(C)=C[C@@H]1C[C@H](C)c2c(O)cc(C)c3c2C1=C(C)C(=O)C3=O
output: 18.2 µM (inactive)

input: Give GI50 for COc1c(C(=O)c2ccc([N+](=O)[O-])cc2)cc(C(C)(C)C)cc1C(C)(C)C
output: 12.6 µM (inactive)

input: Give GI50 for COC(=O)C(C(=O)C(=O)Nc1ccc(C(F)(F)F)cc1[N+](=O)[O-])c1csc(-n2nc(-c3ccccc3)cc2-c2ccccc2)n1 (centres undefined)
output: > 100 µM (inactive)

input: Give GI50 for S=C(N1CCN(c2ccc(Cl)c(Cl)c2)CC1)N1CCN(c2ccc(Cl)c(Cl)c2)CC1
output: 18 µM (inactive)

input: Give GI50 for Clc1ncnc(Cl)c1Cl
output: 4.41 µM (inactive)

input: Give GI50 for COC(=O)C1=C(C)C(=O)[C@H]2C(C(=O)OC)CCCC[C@@H]12 (some centres undefined)
output: 66.2 µM (inactive)

input: Give GI50 for O=c1c(Cc2ccc(Cl)cc2)nnc2sc(-c3ccc(-c4ccc(F)c(Cl)c4)o3)nn12
output: > 100 µM (inactive)

input: Give GI50 for Cc1cccc(C)c1CO
output: > 100 µM (inactive)

input: Give GI50 for COc1ccc(C2OC(c3ccncc3)=NN2C)cc1OC (centres undefined)
output: > 100 µM (inactive)
